method: yeast display, Sf9 membrane polyspecificity reagent, FACS + sequencing; frameworks hold sequencing errors
observation_type: polyreactivity (PSR sort gate)

QVQLVESGGGLVQAGGSVRLSCAASGSTFLHYAMGWYRQPPGKERELVAAITDSGGNTYYADSVKCRFTISRDNAKNTVYLQMNSLKPEDTAVYYCAAEYIFHYYDIFDYWGQGTQVTVSS :: high polyreactivity
QDQLVESGGGLVQAGGSLRLSCAASGRTFIYYVMGWSRQAPGKERELVAAISLRGSSTRYADSVKGRFTISRDNAKNTVYLQMNSLKPEDTAVYYCAARPRLSRYDYWGQGTQVTVSS :: high polyreactivity
QVQLVESGGRLVQAGGSLRLSCAASGFTFSEYAMRWYRPAPGKVRELVAAINDGGGSTYYADSVKGRFTISRDNAKNTVYLQMNSLKPEDTAVYYCAVEQRLRYGYDYWGQGTQVTVSS :: high polyreactivity
QVQLVESGGGLVQAGGRLRLSCAASGSIFGEYAMGWYRQAPGKERELVADITTGGNTNYADSVKGRFTISRDNAKNTVYLQMNSLKPEDTAVYYCNAYGNTYGYWWFGYWGQGTQVTVSS :: low polyreactivity
QVQLVDSGGGVVQEGGSLRLSCAASGIISLFNVMGWYRQAPGKERELVASITGRGGSTFYADSVKGRFTISRDNAKNTVYLQMNSLQPEESGVYYCATDTGDTYPVNGLYDYWGHGTQVTVSS :: low polyreactivity

Prompt: Give reported polyreactivity (PSR sort gate) value for QVQLVESGGGLVQAGGSLRLSCAASGSTFSSYAMGWYRQAPGKEREFVAAISRSGVRTYYADSVKGRFTISRDNAKNSVYLQMNSLNPEDTVVYYCAAVSSLSYSFPYDYWGQGTQVTVSS
Completion: high polyreactivity

Prompt: Give reported polyreactivity (PSR sort gate) value for QVQHVESGGGIVQAGGSLRLSCAASGSTIVDNYMGWYRQAPGKERELVAVINSGGSTYYADSVKGRFTISRDNAKNTGYLQMNSLKPEDTAVYYCAADDIPYGSVYTSIGLDYWGQGTQVTVSS
Completion: low polyreactivity

Prompt: Give reported polyreactivity (PSR sort gate) value for QVLLQESGGGLVQAGGSLRLGCAASGTISPAYYMGRYHQAPGQEREFVAAITYGTNTYYADSVKGRFTISRDNAKNTVYLQMNSLKPEDTAVYYCSATAGYNGAHDYWGQGTQVTVSS
Completion: low polyreactivity

###

method: yeast display, Sf9 membrane polyspecificity reagent, FACS + sequencing; frameworks hold sequencing errors
observation_type: polyreactivity (PSR sort gate)

QVQLVESGAGLVQAGGSLRLSCAASGSNFKWYAMGLYRQAPGKEREFVAAITWSGSGTFYADSVKGRFTISRDNAKKTVYLQMNSLKPEDTAVYYCNKADSYLLYSVTARYFRGFYSWGQVTQVTVSS :: high polyreactivity
QVQLVDSGGGLVQAGGSLRLSCAAYGSTDKPNAMGWYRQAPGKQRELVAANSGSGGSTYYADTVKGRFTISRDNAKNTVYLQMNSLKPEDTAVYYCAAKRTGNGYPRSGYSRYEYWGQGTQVTVSS :: high polyreactivity
QVQLVESGGGLVQAGGSLRLSCAASGIFVYYAMGWYRQAPGKERELVAAISSTGTSTYYADSVKGRFTISRDNAKNTVYLQMNSLKPEDTAVYYCAARGYAKRGYWGQGTQVTVSS :: high polyreactivity

###

method: yeast display, Sf9 membrane polyspecificity reagent, FACS + sequencing; frameworks hold sequencing errors
observation_type: polyreactivity (PSR sort gate)

QVQLVESGGGLVQAGGSLRLSCADSGSTFVNYAMGWYRQAPGKERELVAAISSTGGSTYYADSVKGRFTISRDNAKNTVYLQMNSLKPEDTAVYYCAAYRYFKMGYWGQGTQVTVSS :: high polyreactivity
QVQLVESGGGLVQAGGSLRLSCAASGRIFRYYAMGWYRQAPGKERELVAAISYSGGRTYYADSVKGRFTISRDNAKNTVYLQMNSLKPEDTAVYYCNARARSRKFYYWGQGTQVTVSS :: high polyreactivity
QVQLVESGGGLVQAGGSLRLSCAASGSIFNWNAKAWYRQAPVKERELVAAITGSGTSTYYADSVKGRFTISPDYAKNTVYLQMNSLKPQDTAVYYCAVTRRSRYGYWGQGTQVTVSS :: high polyreactivity

###

method: yeast display, Sf9 membrane polyspecificity reagent, FACS + sequencing; frameworks hold sequencing errors
observation_type: polyreactivity (PSR sort gate)

Recorded polyreactivity (PSR sort gate), per entry:
QVQLVESGGGLVQAGGSLRLSCAASGSIFVPYAMGWYRQAPGKEREFVAVISLRGSRTYYADSVKGRFTISRDNAKNTVYLQMNSLKPEDTAVYYCATTGYRLRQATRYDYWGQGTQVTVSS :: high polyreactivity
QVQLVESGGGLVQAGGSLRLSCAASGFIFKDNARGWYRQATGKEREFVASITASGGSTTYADSVKGRFTISRDTAKNTVYLQMTSLKPEDTAVYYCAARVGWNKRRYDYWGQGTQVTVSS :: low polyreactivity
QVQLVESGGGLVQAAGSLRLICAASGSTFPANAMGWYRQEPGKERELVASITKSGGDTYYADSVKGRFTISRDNAKNSVYVQMNSLKPEDTAVYDCAKDYVNQYGVYKVWANNYNYWGQGTQVTVSS :: low polyreactivity
QVQLVESGGGLVQAGGSLRLSCAASGSTFSLYAMGWYRQAPGKERELVAAISSSGGSTYYADYVKGRFTISRDNAKNTVYLQMNSLKPEDTAVYYCAAYRVGSYDYWGQGTQVTVSS :: high polyreactivity
QVQLVESGGGLLQAGGSLRLSCAASGITFYYNTMGWYRQAPGKERELVASISGGCSTYYADSVKGRFTISRDNAKNTVFLQMKSLIPEDTAVYYCNAQGSLFRGWFDYDYWGQGTQVTVSS :: low polyreactivity
QVQLVESGGGLVQAGGSLRLSCAASGSIFNGYAMGWYRQAPGKERELVATITRGGGSTYYADSVKGRFTISRDNAKNTVYLQMNSLKPEDTAVYYCAKTYFYGVRRFNYWGQGTQVTVSS :: high polyreactivity

Prompt: Give reported polyreactivity (PSR sort gate) value for QVQLVESGGGLVQAGGSLRLICAASGRILRYYAMGWYRQAPGKERELVASISRGGSTYYADSVKGRFTISRDNAKNTFYLQMNSLKPEDTAVYYCAKSVTGWRGLWYTPRNYYWGQGTQVTVSS
Completion: high polyreactivity

Prompt: Give reported polyreactivity (PSR sort gate) value for HVLLVESAGGLVQAGGSLRLSCAASGLIFHRYAMGWYRQAPGKERELVAAISSSGGITYYADSVKGRFTISRDNAKNTVYLQMNSLKPEDTAFYYCAADTGKGTPFSAGLGRAGDYWGQVTQVTVSS
Completion: low polyreactivity

Prompt: Give reported polyreactivity (PSR sort gate) value for QVQLVESGGGLVQAGGSLRLSCAASGFTFTSNAMGWYRQAPGKERELVAVISTRGGSTYYADSVKGRFTISRDNAKNTVYLQMNSLKPEDTAVYYCAARQIPNSVLVHYGYWGLGTQVTVSS
Completion: high polyreactivity

###

method: yeast display, Sf9 membrane polyspecificity reagent, FACS + sequencing; frameworks hold sequencing errors
observation_type: polyreactivity (PSR sort gate)

QVQLVESAGGLVQAGGSLRLSCAASGRTFWSYAMGWSRQAPGKERELVAAINSGGSTYYADSVKGRFTISRDNAKITVYLQRNSLKPEDTAVYYCDADTWYGFDWGVGTQVTVSS :: high polyreactivity
QVQLVESGGGLVQAGGSLRLSCAASGSIIGGNAMGWYRQAPGKERELVAAIRSGGRTNYADSVKGRFTISRDNAKNTVYLQMNSLKPEDTAVYYCAADYYLGGGYWGQGTQVTVSS :: low polyreactivity
QVQLVESGGGLVQAGGSLRLSCAASGSTFWPYTMGWYRPATGKESELVAAISLSGGSTYYADSVKGRFTISRDNAKNSVYLQMNSLKPEDTAVYYCAAEGGYQNWHYLYEYWGQGTQVTVSS :: low polyreactivity
QVQLVESGGGLVQAGGSLRLSFAASGLTLYKNGMGWYRQAPGKETELVAVISRSGGRTYYADSVQGRFTISRDNAKNTVYLQMNSLKPEDTAVYYCAARQYGPRYTYYYWGQGTQVTVSS :: high polyreactivity

###

method: yeast display, Sf9 membrane polyspecificity reagent, FACS + sequencing; frameworks hold sequencing errors
observation_type: polyreactivity (PSR sort gate)

Recorded polyreactivity (PSR sort gate), per entry:
QVQLVESGGGLVQAGGSLRLSCAASGSTFFLYAMGWYRQAPGKEREFVAAISIGGSTNYADSVKGRFTISRDNAKNTVYLQMNSLKPEDTAVYYCAKLDLQYIQYLGYDYWGQGTQVTVSS :: low polyreactivity
QVQLVESGGGLVQAGGSLRLSCAASGFIFRVNAMGWSRQEPGKERELVAAISASGGTTYYADSVKGRFTISRDNAKNTVYLQMNSQKPEDTAVYYCIAPSRTRYDFWGQGTQVTVSW :: low polyreactivity
QVQLEESGGGLVQAGGSLRLSCAAYGSIFYKNAMGWYRQAPGKERELVAAITYSGGSTYYADSVKGRFTISRDNAKKTVYLQMNSLKPEDTAVYYCAADIGVYGERREEEYDYWGQGTQVTVSS :: low polyreactivity
QVQLVESGGGLVQAGGSLRLSCAASGRTFYYYAMGWYRQAPGKEREFVASISYSGARTYYADSVKGRFTISRDNAKNTVYLQVNSLKPEDTAVYYCDAGYPLGGDYWGQGTQVTVSS :: high polyreactivity
QVQLVESGGGLVQAGGSLRLTCAASGSTFRWYAMGWYRQAPAKERELVAAIRSAGSTDYADSVKGRFTISRDNAKNTVYLQINSLKPEDTAVYYCAAYFRYRSSRYGYWGQGTQVTVSS :: high polyreactivity

Prompt: Give reported polyreactivity (PSR sort gate) value for QVQHVESGGGLVQAGGSLRLSCAASGRTFAQYTMGWYRQAPGKERELVAGIDWSGGNTYYADSVKGRFTISRDNAKNTVYLQMNSLKPVDTAVYYCAAVPAFYNAWGEDYEYWGQGTQVTVSS
Completion: low polyreactivity

Prompt: Give reported polyreactivity (PSR sort gate) value for QVQLVESGGGLVQAGGSLRLSCAASGRIFAYNAMGWYRQAPGKERELVAAIDWSGGRTYYADSVKGRFTISRDNEKNTVYLQMNSLKPEDTAVYYCATDVNSYGYYYWGQGTQVTVSS
Completion: high polyreactivity

Cited source for all entries: the nanobody polyreactivity screen of Harvey et al. (2022)
